Just for reference, ChEMBL document CHEMBL5131566 is where these values come from.

Molecular target: Replicase polyprotein 1ab (Severe acute respiratory syndrome coronavirus 2, UniProt P0DTD1)
Assay: Inhibition of recombinant his tagged SARS CoV-2 main protease expressed in Escherichia coli BL21 using Boc-Abu-Tle-Leu-Gln-AMC37 as fluorogenic substrate pre-incubated for 5 mins followed by substrate addition measured after 60 mins by FRET based assay
Threshold 200 nM: IC50 strictly smaller gives class 1, otherwise class 0.

query smiles: Cc1cc(C)nc(SC(=O)c2ccc(C#Cc3ccccc3)o2)n1
discrete label: class 0

query smiles: Cc1nnc(SC(=O)c2ccc(Br)o2)s1
discrete label: class 0

Lab note: confirm whether the reported IC50 for this compound is below 200 nM, equality not counting. compound: "O=C(Sc1nc2ccccc2s1)c1cc2ccccc2[nH]1" class 1

Quick check: does "Cc1nnc(SC(=O)c2ccc(-c3ccccc3)[nH]2)s1" have IC50 under 200 nM? class 0

IC50 under 200 nM? Item: "CSc1nnc(SC(=O)c2cc3ccccc3[nH]2)s1" class 1

Please check: IC50 for "Cc1nnc(SC(=O)c2cccc3cc[nH]c23)s1" , strictly under 200 nM or not? class 1

Threshold test, IC50 < 200 nM: "Cc1nnc(SC(=O)c2ccc(C#Cc3ccccc3)o2)s1" class 0

Field: below-cutoff. Rule: recorded IC50 strictly less than 200 nM. Subject: "COc1ccc2cc([C@H](C)C(=O)Sc3ncccn3)ccc2c1" class 0

In plain terms, does "O=C(Sc1ncccn1)c1ccc2ccccc2n1" come in under 200 nM for IC50? class 1

Quick check: does "O=C(Sc1nncs1)c1cc2ccccc2[nH]1" have IC50 under 200 nM? class 1

Hello, I'm reviewing records and need to know if IC50 of "Cc1nnc(SC(=O)c2ccc3ccccc3c2)s1" is below 200 nM. Could you check? class 0

Given "Cc1nnc(SC(=O)c2cc3ccccc3o2)s1" , is recorded IC50 strictly lower than 200 nM? class 0

Below 200 nM on IC50? Entry "Cc1nnc(SC(=O)c2cc3ccccc3[nH]2)o1" class 0

* * *

Molecular target: Replicase polyprotein 1ab (Severe acute respiratory syndrome coronavirus 2, UniProt P0DTD1)
Assay: Inhibition of recombinant his tagged SARS CoV-2 main protease expressed in Escherichia coli BL21 using Boc-Abu-Tle-Leu-Gln-AMC37 as fluorogenic substrate pre-incubated for 5 mins followed by substrate addition measured after 60 mins by FRET based assay
assay readout: log10(IC50) (log10 of the value in µM)
Field: value | Transform: log10 | Quantity: IC50 | Unit: µM

Look over these answered cases.
query smiles: O=C(Sc1nc2ccccc2s1)c1ccc(-c2ccc(Br)cc2)o1
log10(IC50): -0.59

query smiles: COc1nnc(SC(=O)c2cc3ccccc3[nH]2)s1
log10(IC50): -0.83

query smiles: Cc1nnc(SC(=O)c2ccc(-c3ccccc3)o2)s1
log10(IC50): -1.46

query smiles: O=C(Sc1ncccn1)c1ccc(-c2ccccc2)o1
log10(IC50): -1.74

query smiles: Cc1nnc(SC(=O)c2ccc3[nH]ccc3c2)s1
log10(IC50): -1.14

So for "O=C(Sc1nc2ccccc2s1)c1ccc2ccccc2n1" , the logged log10(IC50) turned out to be -1.05

Short answer for "O=C(Sc1ncccn1)c1cc2ccccc2s1" : log10(IC50) was -1.81

log10(IC50) reported for this compound "O=C(Sc1nc2ccccc2s1)c1ccc(-c2ccccc2)s1" : -0.90

For "Cc1nnc(SC(=O)c2cccc3[nH]ccc23)s1" the compound record lists log10(IC50) as -1.22

Item: "Cc1ccnc(SC(=O)c2cc3ccccc3[nH]2)n1" | log10(IC50): -1.06

// "Cc1nnc(SC(=O)c2cc3ccccc3n2C)s1" : log10(IC50) value = -0.46

Input "O=C(Sc1nc2ccccc2s1)c1ccc(-c2ccccc2)o1" . Output log10(IC50): -0.78

* * *

System: SARS-CoV-2
Experiment: microbe, parasite or virus in culture
Details: Severe acute respiratory syndrome coronavirus 2, Calu-3
assay readout: EC50

query smiles: Cc1nnc(SC(=O)c2ccc3ccccc3c2)s1
assayed target: SARS-CoV-2
EC50: 45 nM
//
query smiles: O=C(Sc1nc2ccccc2s1)c1cc2ccccc2[nH]1
assayed target: SARS-CoV-2
EC50: 137 nM
//
query smiles: O=C(Oc1cncc(Cl)c1)c1cccc2[nH]ccc12
assayed target: SARS-CoV-2
EC50: 28.5 nM
//
query smiles: O=C(Sc1ncccn1)c1cc2ccccc2[nH]1
assayed target: SARS-CoV-2
EC50: 111 nM
//
query smiles: Cc1nnc(SC(=O)c2ccc(-c3ccccc3)o2)s1
assayed target: SARS-CoV-2
EC50: 100 nM

Record for "Cc1ccnc(SC(=O)c2cc3ccccc3[nH]2)n1" under target or system SARS-CoV-2: EC50 reported as 734 nM

The recorded EC50 with SARS-CoV-2 for "Cc1nnc(SC(=O)c2cccc3[nH]ccc23)s1" was 367 nM

* * *

Target: Replicase polyprotein 1ab (Severe acute respiratory syndrome coronavirus 2)
Test: Inhibition of recombinant his tagged SARS CoV-2 main protease expressed in Escherichia coli BL21 using Boc-Abu-Tle-Leu-Gln-AMC37 as fluorogenic substrate pre-incubated for 5 mins followed by substrate addition measured after 60 mins by FRET based assay
pIC50: −log10 of the molar value.
Short version: pIC50 at least 7 is label 1, less is label 0.

query smiles: O=C(Sc1ncccn1)c1ccc(-c2ccccc2)s1
discrete label: label 1
--
query smiles: Cc1cc(C)nc(SC(=O)c2cc3ccccc3[nH]2)n1
discrete label: label 0
--
query smiles: Cc1nnc(SC(=O)c2ccc3cc[nH]c3c2)s1
discrete label: label 1
--
query smiles: Cc1nnc(SC(=O)c2cc3ccccc3[nH]2)n1C(=O)c1cc2ccccc2[nH]1
discrete label: label 0

Say whether "O=C(Sc1nc2ccccc2s1)c1cc2ccccc2s1" shows pIC50 of 7 or more. label 0

Decide: pIC50 of "Cc1nnc(SC(=O)c2cc3ccccc3[nH]2)s1" >= 7? label 0

Is pIC50 at least 7? Consider "O=C(Sc1ncccn1)c1cc2ccccc2[nH]1" label 1

Hi team, for "O=C(Sc1ncccn1)c1ccc(-c2ccc(Br)cc2)s1" , is the recorded pIC50 at or above 7? label 1

* * *

Listed compounds paired with reported inhibition
Target: Replicase polyprotein 1ab (Severe acute respiratory syndrome coronavirus 2)
Assay: Inhibition of recombinant his tagged SARS CoV-2 main protease expressed in Escherichia coli BL21 using Boc-Abu-Tle-Leu-Gln-AMC37 as fluorogenic substrate at 10 uM pre-incubated for 5 mins followed by substrate addition measured after 60 mins by FRET based assay relative to control
Write down the numeric answer in % and omit the unit.

Would you please look over these solved cases?
query smiles: O=C(Sc1ccc(Cl)cc1Cl)c1cc2ccccc2[nH]1
number: 9
//
query smiles: CCOc1nnc(SC(=O)c2cc3ccccc3[nH]2)s1
number: 37
//
query smiles: CCOc1ccc2cc(C(=O)Sc3nccc(C)n3)[nH]c2c1
number: -8
//
query smiles: O=C(Sc1nnc(C(F)(F)F)s1)c1cc2ccccc2[nH]1
number: 26
//
query smiles: O=C(Sc1nnc(C(F)(F)F)s1)c1ccc(C#Cc2ccccc2)o1
number: 14

Just so you know, measured inhibition for "O=C(Sc1ccc(Cl)cc1)c1cc2ccccc2[nH]1" came out at 4

Reported inhibition of "O=C(Sc1nc2ccccc2s1)c1cc2ccccc2o1" : 14

* * *

Molecular target: Replicase polyprotein 1ab (Severe acute respiratory syndrome coronavirus 2)
Experiment: Inhibition of recombinant his tagged SARS CoV-2 main protease expressed in Escherichia coli BL21 assessed as inhibition constant using Boc-Abu-Tle-Leu-Gln-AMC37 as fluorogenic substrate pre-incubated for 5 mins followed by substrate addition measured after 60 mins by FRET based assay
Measured Ki, listed per entry for reference.

Known results for compounds:
query smiles: Cc1nnc(SC(=O)c2cc3ccccc3[nH]2)n1C(=O)c1cc2ccccc2[nH]1
assay readout: Ki
result: 77.3 nM

query smiles: Cc1nnc(SC(=O)c2cccc3cc[nH]c23)s1
assay readout: Ki
result: 250 nM

query smiles: Cc1nnc(SC(=O)c2ccc(C#Cc3ccccc3)o2)s1
assay readout: Ki
result: 34.4 nM

In plain terms, "O=C(Sc1nc2ccccc2s1)c1ccc(-c2ccccc2)o1" has a documented Ki of 612 nM

# Ki (compound: "Cc1ccnc(SC(=O)c2cc3ccccc3[nH]2)n1" ) is 33.2 nM

* * *

Catalogue of Ki values
Target: UniProt P0DTD1
Assay: Inhibition of recombinant his tagged SARS CoV-2 main protease expressed in Escherichia coli BL21 assessed as inhibition constant using Boc-Abu-Tle-Leu-Gln-AMC37 as fluorogenic substrate pre-incubated for 5 mins followed by substrate addition measured after 60 mins by FRET based assay
Please state the figure in µM; there is no need to write the unit.

Known Ki results, listed for orientation:
query smiles: Cc1cc(C)nc(SC(=O)c2cc3ccccc3[nH]2)n1
assayed target: UniProt P0DTD1
unit string: µM
number: 0.773
//
query smiles: Cc1nnc(SC(=O)c2ccc3[nH]ccc3c2)s1
assayed target: UniProt P0DTD1
unit string: µM
number: 0.393
//
query smiles: Cc1nnc(SC(=O)c2cc3ccccc3n2C)s1
assayed target: UniProt P0DTD1
unit string: µM
number: 0.295
//
query smiles: Cc1nnc(SC(=O)c2cc3ccccc3[nH]2)o1
assayed target: UniProt P0DTD1
unit string: µM
number: 0.119
//
query smiles: O=C(Sc1nc2ccccc2s1)c1cc2ccccc2s1
assayed target: UniProt P0DTD1
unit string: µM
number: 0.161
//
query smiles: Cc1nnc(SC(=O)c2ccc(-c3ccccc3)[nH]2)s1
assayed target: UniProt P0DTD1
unit string: µM
number: 0.605
//
query smiles: Cc1nnc(SC(=O)c2cc3ccccc3o2)s1
assayed target: UniProt P0DTD1
unit string: µM
number: 0.0357
//
query smiles: O=C(Sc1nc2ccccc2s1)c1ccc(-c2ccccc2)s1
assayed target: UniProt P0DTD1
unit string: µM
number: 0.042
//
query smiles: O=C(Sc1nncs1)c1cc2ccccc2[nH]1
assayed target: UniProt P0DTD1
unit string: µM
number: 0.0744
//
query smiles: CSc1nnc(SC(=O)c2cc3ccccc3[nH]2)s1
assayed target: UniProt P0DTD1
unit string: µM
number: 0.043

Form field Ki for item "COc1ccc2cc([C@H](C)C(=O)Sc3ncccn3)ccc2c1" on UniProt P0DTD1: 0.021

Reported UniProt P0DTD1 Ki for item "COc1nnc(SC(=O)c2cc3ccccc3[nH]2)s1" was 0.0844
